# tgt: T1, human IL-11 (AAH12506.1, Pro22-Leu199) (human, UniProt P20809 22-199)
# T1 construct: The range Pro22-Leu199 counts on AAH12506.1; The Octet runs say only 'human IL-11'; also called hIL-11
# T1 chain: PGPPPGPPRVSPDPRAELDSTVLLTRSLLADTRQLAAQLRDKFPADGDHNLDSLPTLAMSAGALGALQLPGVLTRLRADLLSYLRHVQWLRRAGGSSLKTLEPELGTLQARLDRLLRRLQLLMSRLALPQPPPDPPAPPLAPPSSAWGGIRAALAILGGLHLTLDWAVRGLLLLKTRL
# procedure text: BLI (Octet), antibody captured, human IL-11 in solution
# Protocol: The affinity of the murine antibodies purified from the hybridoma supernatants was determined using an Octet QKe System instrument from Fortebio Inc. with an anti-mouse IgG Fc Capture biosensor to capture the Fc fragments of the antibodies, for which an anti-IL-11 antibody named “3C6-mFc” recombinantly expressed was used at the same concentration as a positive control. […] Binding signals were detected on the Octet QKe System instrument with Hy5C2, Hy8C8, Hy16B5, Hy18A10, and Hy18H10. […]
pKd: −log10 of the molar value.
Let's look at some binders and their measured pKd.
value kind: pKd

binder: hz8C8-VHm1 + hz8C8-VLm4 (antibody, human IgG1, kappa, V domains shown, human IgG1 constant regions) VH: EVQLVESGGGLVQPGGSLRLSCAASGFTFSSFGMHWVRQAPGKGLEWVAYITPGSNTIYYADTVKGRFTISRDNAKNSLYLQMNSLRAEDTAVYYCAREYYSYDEGFAYWGQGTLVTVSS VL: EIVLTQSPATLSLSPGERATLSCSVSDLISSNYLHWYQQKPGQAPRLLIYRTSNLASGIPARFSGSGSGTDFTLTISSLEPEDFAVYYCQQGVDVPFTFGQGTKLEIKR
result comparator: =
reported: 9.79

binder: hz8C8-VHm1-m3 + hz8C8-VLm7-m3 (antibody, human IgG1, kappa, V domains shown, human IgG1 constant regions) VH: EVQLVESGGGLVQPGGSLRLSCAASGFTFSSFGMHWVRQAPGKGLEWVAYITPGSNTIYYADTVKGRFTISRDNAKNSLYLQMNSLRAEDTAVYYCAREYSSYDEGFAYWGQGTLVTVSS VL: EIVLTQSPATLSLSPGERATLSCSVSDLIPSQYLHWYQQKPGQAPRLLIYGASNLASGIPARFSGSGSGTDFTLTISSLEPEDFAVYYCQQGVDVPFTFGQGTKLEIKR
result comparator: >
reported: 12.00

binder: hz8C8-VHm2 + hz8C8-VL (antibody, human IgG1, kappa, V domains shown, human IgG1 constant regions) VH: EVQLVESGGGLVQPGGSLRLSCAASGFTFSSFGMHWVRQAPGKGLEWVAYITAGSNTIYYADTVKGRFTISRDNAKNSLYLQMNSLRAEDTAVYYCAREYYSYDEGFAYWGQGTLVTVSS VL: EIVLTQSPATLSLSPGERATLSCSVSSSISSNYLHWYQQKPGQAPRLLIYRTSNLASGIPARFSGSGSGTDFTLTISSLEPEDFAVYYCQQGVDVPFTFGQGTKLEIKR
result comparator: =
reported: 9.14
